Recorded measurements of kon, one per entry
# targetSystem: T1, human TPBG antigen immobilized on a CM5 chip (human, UniProt Q13641 32-355, limits assumed)
# T1 sequence (looked up): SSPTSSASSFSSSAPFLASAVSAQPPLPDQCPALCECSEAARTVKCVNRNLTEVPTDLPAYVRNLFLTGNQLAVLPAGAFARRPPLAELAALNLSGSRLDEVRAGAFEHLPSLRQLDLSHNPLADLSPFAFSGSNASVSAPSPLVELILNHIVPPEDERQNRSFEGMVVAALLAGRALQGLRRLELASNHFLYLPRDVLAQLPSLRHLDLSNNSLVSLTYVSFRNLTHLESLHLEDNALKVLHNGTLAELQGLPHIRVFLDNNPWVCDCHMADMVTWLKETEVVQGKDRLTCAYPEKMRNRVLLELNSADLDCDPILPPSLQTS
# assayText: SPR (Biacore), human TPBG antigen immobilized on CM5 chip
Report the value in M⁻¹ s⁻¹ with no unit label.

- binder: "Chimeric antibody 28D4 (antibody, V domains shown, Mouse variable domains on human IgG1 heavy and human kappa light constant regions; also called c28D4; TPBG chimeric antibody 28D4) VH: DVQLVESGGGLVRPGGSLKLSCAASGFTFSNYVMSWARQSPEKRLEWVAEISTGGSHTYYSDTVTGRFTISRDNAKKALYLEMSSLRSEDTAIYYCIMFYYGSSYSMDYWGQGTSVTVSS VL: DIQMTQSTSSLSASLGDRITISCRASQDIRNYLNWYQQKPDGTVKLLIYHTSRLHSGVPSRFSGSGSGTDYSLTISNLEQEDIATYFCQQGDTLPLTFGAGTRLELK"
  kon / M⁻¹ s⁻¹: "2.5e+06"
- binder: "Humanized antibody 12B12-4 (antibody, V domains shown, also called h12B12-4) VH: EVQLVESGGGLVQPGGSLRLSCAASGFTFSNFGMHWVRQAPGKGLEWVSYISSGSTSFYYADTVKGRFTISRDNAKNSLYLQMNSLRDEDTAVYYCARTNSLLRGFFDAWGQGTTVTVSS VL: DIVLTQSPDSLAVSLGERATINCRASQSVSSSSYTYLHWYQQKPGQPPKLLIKSASNLESGVPDRFSGSGSGTDFTLTISSLQAEDVAVYYCQHSWEIPLTFGQGTKLEIK"
  kon / M⁻¹ s⁻¹: "1.58e+06"

Next binder, please.
-- ask Field request: kon | item: Humanized antibody 12B12-5 (antibody, V domains shown, also called h12B12-5) VH: EVQLVESGGGLVQPGGSLRLSCAASGFTFSNFGMHWVRQAPGKGLEWVSYISSGSTSFYYADTVKGRFTISRDNAKNSLYLQMNSLRDEDTAVYYCSRTNSLLRGFFDAWGQGTTVTVSS VL: DIVLTQSPDSLAVSLGERATINCRASQSVSSSSYTYLHWYQQKPGQPPKLLIKSASNLESGVPDRFSGSGSGTDFTLTISSLQAEDVAVYYCQHSWEIPLTFGQGTKLEIK
-- reply 1.17e+06
